- Protocol notes: in vitro
- Experimental parameters: dog, MDCK, Papp B-A Sample - 02
Experimental endpoint: Papp B→A at 90 min, 5 µM (×10⁻⁶ cm/s)

1. C[C@H]1O[C@@H](O[C@H]2[C@@H](O)C[C@H](O[C@H]3[C@@H](O)C[C@H](O[C@H]4CC[C@@]5(C)[C@H](CC[C@@H]6[C@@H]5C[C@@H](O)[C@]5(C)[C@@H](C7=CC(=O)OC7)CC[C@]65O)C4)O[C@@H]3C)O[C@@H]2C)C[C@H](O)[C@@H]1O
2. Cc1cc2c(C(N)=O)c(N)n(-c3c(C)ccc(O)c3C)c2nc1C [RP-6306, reference compound]
Challenge: Could you kindly indicate whether 1 or 2 has the higher Papp B→A at 90 min, 5 µM value? Answer by quoting the chosen item's label.
Response given: 2

###

- Protocol notes: In vitro permeability experiment, MDCK wild type cells
- Experimental parameters: dog, Papp B-A Sample - 02, MDCK-Wild type, B-A, 5 μM, replicate 02
Experimental endpoint: Papp B→A at 90 min, 5 µM (×10⁻⁶ cm/s)
The reply should be a number in ×10⁻⁶ cm/s, with the unit left off.

Challenge: Entry COCCc1ccc(OCC(O)CNC(C)C)cc1 (stereo not shown) has what Papp B→A at 90 min, 5 µM?
Response given: 24

###

- Tested on: P-glycoprotein (P-gp, MDR1)
- Protocol notes: in vitro
- Experimental parameters: dog, MDCK-MDR1, Papp B-A Mean, MDCK-MDR1, B-A, 5 μM, mean
Experimental endpoint: Papp B→A (×10⁻⁶ cm/s)
The reply should be a number in ×10⁻⁶ cm/s, with the unit left off.

Challenge: Entry COCCc1ccc(OCC(O)CNC(C)C)cc1 (stereo not shown) has what Papp B→A?
Response given: 20.1

###

- System: P-glycoprotein (P-gp, MDR1)
- Protocol notes: in vitro
- Experimental parameters: dog, MDCK-MDR1, Papp A-B Sample - 02, MDCK-MDR1, A-B, 5 μM, replicate 02
Experimental endpoint: Papp A→B (×10⁻⁶ cm/s)
The reply should be a number in ×10⁻⁶ cm/s, with the unit left off.

Challenge: Entry COCCc1ccc(OCC(O)CNC(C)C)cc1 (stereo not shown) has what Papp A→B?
Response given: 36.3

###

- Protocol notes: In vitro permeability experiment, MDCK wild type cells
- Experimental parameters: dog, Papp A-B Mean, MDCK-Wild type, A-B, 5 μM, mean
Experimental endpoint: Papp A→B at 90 min, 5 µM (×10⁻⁶ cm/s)
The reply should be a number in ×10⁻⁶ cm/s, with the unit left off.

Challenge: Entry COCCc1ccc(OCC(O)CNC(C)C)cc1 (stereo not shown) [Metoprolol, metoprolol] has what Papp A→B at 90 min, 5 µM?
Response given: 24.3

###

- Protocol notes: in vitro
- Experimental parameters: dog, MDCK, Papp A-B Mean
Experimental endpoint: Papp A→B at 90 min, 5 µM (×10⁻⁶ cm/s)

P. Cc1cc2c(C(N)=O)c(N)n(-c3c(C)ccc(O)c3C)c2nc1C [RP-6306, reference compound]
Q. C[C@H]1O[C@@H](O[C@H]2[C@@H](O)C[C@H](O[C@H]3[C@@H](O)C[C@H](O[C@H]4CC[C@@]5(C)[C@H](CC[C@@H]6[C@@H]5C[C@@H](O)[C@]5(C)[C@@H](C7=CC(=O)OC7)CC[C@]65O)C4)O[C@@H]3C)O[C@@H]2C)C[C@H](O)[C@@H]1O
Challenge: Just tell me: smaller Papp A→B at 90 min, 5 µM value, P or Q ? Answer by quoting the chosen item's label.
Response given: Q
